target: FP receptor (Homo sapiens (Human)); assay: In vitro test of inhibition of human FP receptor activity (PGF2α-induced calcium flux in FP-expressing CHEM1 cells); conditions: PGF2α-induced (2 nM) calcium flux in FP-expressing CHEM1 cells; some as mean values from multiple determinations
Sequence (P43088 whole entry): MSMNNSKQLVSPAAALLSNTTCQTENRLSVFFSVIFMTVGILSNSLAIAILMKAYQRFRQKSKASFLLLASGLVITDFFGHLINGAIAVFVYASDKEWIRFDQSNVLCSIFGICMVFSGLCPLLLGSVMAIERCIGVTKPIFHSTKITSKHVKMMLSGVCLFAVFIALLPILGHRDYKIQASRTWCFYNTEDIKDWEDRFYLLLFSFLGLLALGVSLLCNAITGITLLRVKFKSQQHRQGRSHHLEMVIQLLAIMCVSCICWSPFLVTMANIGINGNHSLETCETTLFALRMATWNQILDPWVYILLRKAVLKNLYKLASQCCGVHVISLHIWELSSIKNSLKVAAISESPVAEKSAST
Reported pIC50 values for the following compounds.
// returns pIC50 (minus log10 of molar concentration), number only

See these solved cases before continuing.
INSERT INTO assay_data (compound, assay_target, endpoint_name, observed_value) VALUES
  ('COc1ccc(F)cc1C(CNC(=O)c1c(C)c(-c2ccccc2)nc2ccc(Br)cc12)CC(=O)O (single isomer, unassigned; (-)) [Example 125]', 'FP receptor (Homo sapiens (Human))', 'pIC50', 7.01),
  ('COc1cc(F)ccc1C(C)(CNC(=O)c1c(C)c(-c2ccccc2)nc2ccc(Br)cc12)CC(=O)O (single isomer, unassigned; (+)) [Example 139]', 'FP receptor (Homo sapiens (Human))', 'pIC50', 7.55),
  ('COc1ccc(F)cc1C(CNC(=O)c1c(C)c(-c2ccccc2)nc2ccc(Br)cc12)CC(=O)O (racemic) [Example 123]', 'FP receptor (Homo sapiens (Human))', 'pIC50', 7.96),
  ('COc1ccccc1C(C)(CNC(=O)c1c(C)c(-c2ccccc2)nc2ccc(Br)cc12)CC(=O)O (single isomer, unassigned; (+)) [Example 121]', 'FP receptor (Homo sapiens (Human))', 'pIC50', 8.00),
  ('Cc1c(-c2ccccc2)nc2ccc(Br)cc2c1C(=O)NCC(C)(C(=O)O)c1c(F)cccc1Cl (single isomer, unassigned; (-)) [Example 62]', 'FP receptor (Homo sapiens (Human))', 'pIC50', 7.37),
  ('Cc1c(-c2ccccc2)nc2ccc(Br)cc2c1C(=O)NCC(CCC(=O)O)c1c(Cl)ccc(Cl)c1Cl (single isomer, unassigned; (+)) [Example 235]', 'FP receptor (Homo sapiens (Human))', 'pIC50', 7.49);

Consider the additional compound presented here.
Problem: API: value(readout=pIC50, system=FP receptor (Homo sapiens (Human))) for record C#Cc1ccc2nc(-c3ccccc3)c(C)c(C(=O)NCC(CCC(=O)O)c3ccccc3Cl)c2c1 (single isomer, unassigned; (-)) [Example 219]
Result: 8.00
